- experimental_target: Polyunsaturated fatty acid 5-lipoxygenase (Rattus norvegicus)
- Sequence (P12527 whole entry): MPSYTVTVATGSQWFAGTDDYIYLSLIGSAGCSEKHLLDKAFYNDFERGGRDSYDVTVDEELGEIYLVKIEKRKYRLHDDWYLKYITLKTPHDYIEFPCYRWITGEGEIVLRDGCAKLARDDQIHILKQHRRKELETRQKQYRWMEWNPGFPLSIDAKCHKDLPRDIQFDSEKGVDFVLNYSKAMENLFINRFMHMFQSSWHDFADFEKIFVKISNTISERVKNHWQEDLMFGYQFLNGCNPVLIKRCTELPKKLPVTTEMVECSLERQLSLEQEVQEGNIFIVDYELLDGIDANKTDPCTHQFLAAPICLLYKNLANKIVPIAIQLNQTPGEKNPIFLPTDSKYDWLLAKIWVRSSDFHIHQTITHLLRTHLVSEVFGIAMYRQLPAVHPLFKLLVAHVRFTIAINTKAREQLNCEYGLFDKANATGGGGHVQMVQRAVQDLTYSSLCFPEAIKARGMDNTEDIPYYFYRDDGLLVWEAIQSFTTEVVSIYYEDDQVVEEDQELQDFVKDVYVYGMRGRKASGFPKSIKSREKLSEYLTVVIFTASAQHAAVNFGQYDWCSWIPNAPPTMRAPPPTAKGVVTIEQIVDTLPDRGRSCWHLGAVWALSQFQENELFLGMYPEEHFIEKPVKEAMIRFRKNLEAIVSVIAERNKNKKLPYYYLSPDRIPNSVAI
- assay_procedure: Inhibition of 5-lipoxygenase catalysis in rat basophilic leukemia (RBL) cells by measuring 5-HETE product formation
- Assay type: cell-based, RBL-1
pIC50: −log10 of the molar value.
observed_property: pIC50

Worked examples follow.
compound=O=C1NCCN(c2cccc(F)n2)N1 experimental_target="Polyunsaturated fatty acid 5-lipoxygenase (Rattus norvegicus)" observed_property=pIC50 observed_result=5.04
compound=COc1cccc(N2CCNC(=O)N2)n1 experimental_target="Polyunsaturated fatty acid 5-lipoxygenase (Rattus norvegicus)" observed_property=pIC50 observed_result=5.02
compound=CN1CCN(c2ccccc2)NC1=O experimental_target="Polyunsaturated fatty acid 5-lipoxygenase (Rattus norvegicus)" observed_property=pIC50 observed_result=4.49

A: CC1CN(c2cccc(Cl)c2)NC(=O)N1 (stereo unspecified)
B: O=C1NCCN(c2cccc(-c3ccccn3)c2)N1
C: O=C1NCCN(c2cccc(Cl)n2)N1
Prompt: Highest pIC50 first, then in falling order down to the smallest. Please write the labels in the order that was asked for.
Response: A, C, B
